- experimentalTarget: UniProt:P07333
- protocol: Peptide (non-phosphorylated) assay, fluorescence polarization competition immunoassay
- Type: biochemical
- details: 0.7 nM CSF-1R, 308 μM SYEGNSYTFIDPTQ peptide, 1 mM ATP, 80 min; mean of at least three determinations; read-out: c-fms Peptide IC50
pIC50: −log10 of the molar value.
Returns true if the recorded pIC50 is greater than or equal to 9, and false otherwise.

API: above_or_equal(metric=pIC50, cutoff=9) for item CCONC(=O)c1cn(-c2ccc(C)c(C)c2)c2nc(Nc3ccc(CCN4CCN(C)CC4)cc3)ncc2c1=O [Cpd 53] true

Decide: pIC50 of CCONC(=O)c1cn(C2CCCC2)c2nc(Nc3ccc(CCN4CCCC4)cc3)ncc2c1=O [Cpd 40] >= 9? false

###

- experimentalTarget: CSF-1R (Homo sapiens, UniProt P07333)
- Sequence (P07333 20-972): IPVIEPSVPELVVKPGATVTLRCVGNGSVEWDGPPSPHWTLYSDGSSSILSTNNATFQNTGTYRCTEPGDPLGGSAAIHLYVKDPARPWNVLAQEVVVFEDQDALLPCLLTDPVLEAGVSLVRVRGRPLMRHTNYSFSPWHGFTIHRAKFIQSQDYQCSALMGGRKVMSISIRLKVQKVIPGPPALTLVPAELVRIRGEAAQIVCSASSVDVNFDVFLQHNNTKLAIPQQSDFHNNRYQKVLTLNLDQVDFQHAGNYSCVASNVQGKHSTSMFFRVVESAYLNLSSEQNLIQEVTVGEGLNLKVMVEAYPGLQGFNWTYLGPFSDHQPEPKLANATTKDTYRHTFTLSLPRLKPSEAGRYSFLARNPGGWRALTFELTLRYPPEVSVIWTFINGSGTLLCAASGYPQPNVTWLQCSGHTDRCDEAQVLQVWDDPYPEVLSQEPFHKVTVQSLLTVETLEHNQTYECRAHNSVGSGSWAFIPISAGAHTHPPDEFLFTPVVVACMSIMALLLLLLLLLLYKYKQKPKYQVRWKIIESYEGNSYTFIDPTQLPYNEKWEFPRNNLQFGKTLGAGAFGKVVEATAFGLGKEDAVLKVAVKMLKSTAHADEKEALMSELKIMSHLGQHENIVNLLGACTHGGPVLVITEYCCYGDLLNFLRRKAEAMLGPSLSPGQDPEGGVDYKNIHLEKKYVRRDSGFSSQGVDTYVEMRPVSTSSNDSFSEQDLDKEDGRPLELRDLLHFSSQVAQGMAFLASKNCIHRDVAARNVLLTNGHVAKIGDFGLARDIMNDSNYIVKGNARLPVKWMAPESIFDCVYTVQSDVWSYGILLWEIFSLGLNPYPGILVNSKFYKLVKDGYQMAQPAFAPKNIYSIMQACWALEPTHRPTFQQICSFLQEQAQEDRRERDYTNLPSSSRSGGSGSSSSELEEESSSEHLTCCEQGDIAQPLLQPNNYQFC
- protocol: Peptide (non-phosphorylated) assay, fluorescence polarization competition immunoassay
- Format: biochemical
- details: 0.7 nM CSF-1R, 308 μM SYEGNSYTFIDPTQ peptide, 1 mM ATP, 80 min; mean of at least three determinations; read-out: c-fms Peptide IC50
Consider the following molecules; for each one, report its IC50.
# output: bare number, implied unit nM

The molecule CONC(=O)c1cn(-c2ccc3c(c2)CCC3)c2nc(Nc3ccc(CCN4CC[C@H](F)C4)cc3)ncc2c1=O showed IC50 equal to 0.66

Lab note: measured IC50 of CONC(=O)c1cn(-c2ccc3c(c2)CCC3)c2nc(Nc3ccc(CCN4CCN(C)CC4)cc3)ncc2c1=O was 0.68

In plain terms, CONC(=O)c1cn(-c2ccc3c(c2)CCC3)c2nc(Nc3ccc(CCS(C)(=O)=O)cc3)ncc2c1=O has a documented IC50 of 0.64

Lab note: CONC(=O)c1cn(-c2cccc(C(F)(F)F)c2)c2nc(Nc3ccc(C4CCN(C)CC4)cc3)ncc2c1=O gave IC50 of 0.8

So for CCONC(=O)c1cn(C2CCCCC2)c2nc(Nc3ccc(CCN4CCOCC4)cc3)ncc2c1=O , the logged IC50 turned out to be 1

// recorded IC50 for CCN1CC[C@H](Oc2cccc(Nc3ncc4c(=O)c(C(=O)NOC)cn(-c5ccc6c(c5)CCC6)c4n3)c2)C1 : 0.56

###

- experimentalTarget: CSF-1R (Homo sapiens)
- protocol: Peptide (non-phosphorylated) assay, fluorescence polarization competition immunoassay
- Format: biochemical
- details: 0.7 nM CSF-1R, 308 μM SYEGNSYTFIDPTQ peptide, 1 mM ATP, 80 min; mean of at least three determinations; read-out: c-fms Peptide IC50
outcomeMeasure: IC50 (nM)
Use nM as the unit, but write only the number.

The recorded IC50 for entry CONC(=O)c1cn(-c2ccc3c(c2)CCC3)c2nc(Nc3ccc(CCN4CCN(S(C)(=O)=O)CC4)cc3)ncc2c1=O [Cpd 146] equals 1.2

GET /value?item= CCc1ccc(-n2cc(C(=O)NOC)c(=O)c3cnc(Nc4cccc(OCCCOC)c4)nc32)cc1 [Cpd 216] &field=IC50 returns 1.6

IC50 in this record for CONC(=O)c1cn(-c2ccc3c(c2)CCC3)c2nc(Nc3ccc(C4CCN(CCO)CC4)cc3)ncc2c1=O [Cpd 88] : 1.3

The compound identified as CONC(=O)c1cn(-c2ccc3c(c2)CCC3)c2nc(Nc3ccc(CCN4CC[C@@H](F)C4)cc3)ncc2c1=O [Cpd 252] registered its IC50 at 0.57
